Ref: patent US20250019450A1

target under test: T1, human IL-12Rβ2-huFc-his (R&D system), biotinylated (human, UniProt Q99665 24-622, limits assumed, biotinylated)
T1 construct: bought; captured on Neutravidin in the ELISA; also called Bio-huIL-12Rβ2-huFc-His
T1 sequence (looked up): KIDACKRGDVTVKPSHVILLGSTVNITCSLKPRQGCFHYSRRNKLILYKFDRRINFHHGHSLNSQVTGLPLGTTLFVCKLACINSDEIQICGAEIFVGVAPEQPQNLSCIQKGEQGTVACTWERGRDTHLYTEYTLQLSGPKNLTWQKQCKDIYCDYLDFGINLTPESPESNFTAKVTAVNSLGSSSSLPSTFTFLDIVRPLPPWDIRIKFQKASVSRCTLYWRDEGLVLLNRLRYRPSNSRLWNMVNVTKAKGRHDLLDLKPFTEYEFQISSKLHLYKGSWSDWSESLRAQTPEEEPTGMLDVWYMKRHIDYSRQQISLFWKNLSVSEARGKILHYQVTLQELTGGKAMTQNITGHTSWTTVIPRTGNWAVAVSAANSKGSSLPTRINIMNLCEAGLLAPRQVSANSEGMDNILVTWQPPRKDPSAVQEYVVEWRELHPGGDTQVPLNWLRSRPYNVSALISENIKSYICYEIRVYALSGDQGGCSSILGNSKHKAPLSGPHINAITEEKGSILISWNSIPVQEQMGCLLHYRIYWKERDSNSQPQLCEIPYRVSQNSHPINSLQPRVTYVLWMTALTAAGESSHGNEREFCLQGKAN
test details: ELISA, periplasmic extract
Output TRUE for records whose OD450 nm is lower than 0.3, FALSE for records at or above 0.3.

>  <binder>
VHH219B2 (VHH) VHH: QVQLEESGGGLVQAGGSLRLSCAASGRTFSSYVVGWFRQAPGKEREFVGRISWSGARTYYADSVEGRFTISRDNAKNTVYLQMNSLKPEDTAVYYCAADLKWEVLLSEHYEYWGQGTQVTVSS

>  <label value>
TRUE

$$$$
>  <binder>
VHH185B2 (VHH) VHH: QVQLVESGGGLVQAGGSLRLSCAASGRTFSRYRMGWFRQAPGKEREFVAAITKSGATTYDADSVKGRFTISRDNAKNTLYLQMNSLKPEDTAVYYCAASYHSNWWPKNADEYAYWGQGTQVTVSS

>  <label value>
FALSE

$$$$
>  <binder>
VHH67B2 (VHH) VHH: QVQLVESGGGLVQPGGSLRLSCAASGFTFSNYAMSWIRQGPERGFEWVSRINSGGGTTSYADSVKGRFTISRDNAKNTLYLQMNSLKPEDTAVYYCAKHSHPDYSSNYYRPGQGTQVTVSS

>  <label value>
FALSE

$$$$
>  <binder>
VHH93B2 (VHH) VHH: QVQLVESGGGLVQPGGSLRLSCAASGFTFEPYDMSWFRQAPGKGPEWVSAIDKGGGAGATYYADSVKGRFTISRDNAKKTLYLQMKSLKPEDTAVYYCAITAGPYSDSTPRVAYRGEGTQVTVSS

>  <label value>
TRUE

$$$$
>  <binder>
VHH278B2 (VHH) VHH: QVQLVESGGGLVQAGGSLKLSCAASGGTFSSYAMGWFRQAPGKEREFVAVIMRSGDTTAYVDSVKGRFTVSRDNAKNTVYLQMNSLKPEDAAVYFCAAGRPVTRTYYHTYTYPHDYDYWGQGTQVTVSS

>  <label value>
FALSE

$$$$
>  <binder>
VHH294B2 (VHH) VHH: QLQLVESGGGLVQAGGSLRLSCAASGLTFSGYTVGWFRQAPGKEREFVAAINWSSAYTYSEFVKGRFTISRDNAKNTVYLQMSSLKPEDTAVYYCAAQRSRTSWYASTAEAYDYWGQGTQVTVSS

>  <label value>
FALSE

$$$$
>  <binder>
VHH13B2 (VHH) VHH: QVQLVESGGGLVRPGGSLRLSCAASGFTFSSNGMHWFRQAPGKGLEWVSSIGSGGTSIYYADSVKGRFTISRDNAKNTLYLQMNSLKSDDTAVYYCSKEVTGATRGQGTQVTVSS

>  <label value>
FALSE

$$$$
